Tested on: NCI-H23 lung
ASSAY COMMENT: NCI-60 one-dose screen, 48 h (100 = growth as untreated, 0 = no growth, -100 = all killed)
RECORDED CONDITIONS: 10 µM unless noted
Compounds without any hit were thinned out: in the full panel of roughly 83,000, 20% have a hit.

- COMPOUND: "COc1cc(C2NC(=O)c3ccccc3N2)ccc1OCCCCCOc1c(OC)cc(C2=NOC(c3cc(OC)c(OC)c(OC)c3)C2)cc1OC (centres undefined)"
  UNITS OF MEASURE: "%"
  growth: 59.5
- COMPOUND: "CCOC(=O)/C=C/c1cc2cc(-c3csc4ccccc34)ccc2[nH]1"
  UNITS OF MEASURE: "%"
  growth: 60.6
- COMPOUND: "CCc1ccccc1-n1c(N)c(C#N)c(-c2ccc(N(C)C)cc2)c(C#N)c1=O"
  UNITS OF MEASURE: "%"
  growth: 96.2
- COMPOUND: "O=C1N=c2cc3c(cc2=C/C1=C/c1sc(=S)n(CCc2ccc(O)cc2)c1O)OCCO3"
  UNITS OF MEASURE: "%"
  growth: 71.2
- COMPOUND: "COc1cccc(-c2nc3sccn3c2-c2ccnc(NCCNS(=O)(=O)c3cccc(F)c3)c2)c1"
  UNITS OF MEASURE: "%"
  growth: 33.7
- COMPOUND: "CN1C(=O)N(C)C2C1NN=c1s/c(=C\\c3ccccc3)c(=O)n12 (centres undefined)"
  UNITS OF MEASURE: "%"
  growth: 64.1
- COMPOUND: "Cc1cc(NCCCCNc2ccnc3cc(Cl)ccc23)nc(Nc2ccc(C(=O)N3CCCCC3)cc2)n1"
  UNITS OF MEASURE: "%"
  growth: 41.3
- COMPOUND: "Cc1c2c(c(C)c3c1oc1cc(O)ccc13)C(=O)N(CCN1CCCCC1)C2=O"
  UNITS OF MEASURE: "%"
  growth: 94.6
- COMPOUND: "Cn1c(=O)c2c(nc(Cl)n2CCl)n(C)c1=O"
  UNITS OF MEASURE: "%"
  growth: 3.75

These data points were gathered from PubChem BioAssay (NCI).
